Compiled notes: published Ki values involving Cathepsin B (Homo sapiens, UniProt P07858).

Cc1cc(C)c(C(=O)OCC(=O)[C@H](CCCCn2cc(C[C@H](NC(=O)CN3CCN(CC(=O)O)CCN(CC(=O)O)CCN(CC(=O)O)CC3)C(=O)NCCC(=O)N[C@@H](CCCCN)C(=O)N3CCC[C@H]3C(=O)N(C)[C@@H](CCCNC(=N)N)C(=O)N[C@@H](CCCNC(=N)N)C(=O)N3CCC[C@H]3C(=O)N[C@@H](Cc3c(C)cc(O)cc3C)C(=O)N[C@H](C(=O)N[C@@H](CC(C)C)C(=O)O)C(C)(C)C)nn2)NC(=O)[C@H](Cc2ccccc2)NC(=O)OCc2ccccc2)c(C)c1 : 25 nM
CS(=O)(=O)Nc1ccc(C(=O)N[C@@H](CC2CCCCC2)C(=O)NCCN2CCc3cc(F)ccc32)cc1 : > 10000 nM
CC(C)C[C@H](Nc1nc(-c2ccccc2)ns1)C(=O)N1CCC[C@H]1C(=O)O : 74000 nM
Cc1cccc(C(=O)N[C@@H](CC2CCCCC2)C(=O)NCCN2CCc3cc(F)ccc32)c1 : > 10000 nM
CC[C@H](NC(=O)[C@H](Cc1cc(Cl)c(O)c(Cl)c1)N[C@@H](c1ccc(F)cc1)C(F)(F)F)C(=O)C(=O)NC1CC1 : ≤ 1 nM
CCCC[C@H](NC(=O)O[C@H](Cn1cnc(-c2ccc(C(F)(F)F)cc2)c1)C(C)(C)C)C(=O)C(=O)Nc1ccn[nH]1 : 1 to 100 nM

With Cathepsin B (Homo sapiens, UniProt P07858) as the test system, O=C(NC1(C(=O)N[C@H]2CCCN(S(=O)(=O)c3ccccn3)CC2=O)CCCCC1)c1cc2sccc2s1 (racemic) showed Ki of 434 nM

With Cathepsin B (Homo sapiens, UniProt P07858) as the test system, Cc1ccccc1C(C)C(=O)N[C@@H](CC1CCCCC1)C(=O)NCCN1CCc2cc(F)ccc21 (stereo partly drawn) showed Ki of > 10000 nM

---

pKi: −log10 of the molar value.
Compiled notes: published pKi values involving Cathepsin B (Homo sapiens).

CC[C@H](NC(=O)O[C@@H](CC1CCCCC1)C(=O)N1CCOCC1)C(=O)c1nc2ccc(C)cc2o1 : < 4.52
N#CC1(NC(=O)[C@H](Cc2cc(Cl)c(O)c(Cl)c2)N[C@@H](c2ccc(F)cc2)C(F)(F)F)CC1 : 6.89
C[C@@H](CNc1cc(F)ccc1F)NC(=O)[C@H](CC1CCCCC1)NC(=O)c1ccc(-c2cccc(F)c2)o1 : > 5.00

Now take the following compound into account.
CCCC[C@H](NC(=O)OCC1(Cc2ccc(F)cc2)CCC1)C(=O)C(=O)Nc1n[nH]c2cc(Cl)ccc12 has a reported pKi of 6.00 to 7.00
